METHOD: Cyclic voltammetry of the Mn(III)/Mn(II) redox couple
Assay type: physicochemical
APPLIED_CONDITIONS: pH 7.4, vs. NHE
MEASURED_ENDPOINT: Half-cell potential vs. normal hydrogen electrode (NHE) (mV)
Express your answer in mV, writing the number without its unit.

Answered examples (4):
O=C([O-])CN(CC(=O)[O-])C1CCCCC1N(CC(=O)[O-])Cc1cc([N+](=O)[O-])ccc1[O-].[Mn+3].[Na+] (racemic) [Compound 31, Na[Mn^IIIcycHBET-NO2]] | 488
COc1ccc([O-])c(CN(CCN(CC(=O)[O-])CC(=O)[O-])CC(=O)[O-])c1.[Mn+2].[Na+].[Na+] [Compound 9, Na2[Mn^IIHBET-OMe]] | 344
O=C([O-])CN(CCN(CC(=O)[O-])Cc1ccccc1[O-])CC(=O)[O-].[Mn+2].[Na+].[Na+] [Compound 4, Na2[Mn^IIHBET]] | 379
O=C([O-])CN(CC(=O)[O-])C1CCCCC1N(CC(=O)[O-])Cc1ccccc1[O-].[Mn+3].[Na+] (racemic) [Compound 21, Na[Mn^IIIcycHBET]] | 365

Okay, next one:
Record O=C([O-])CN(CCN(CC(=O)[O-])Cc1cc([N+](=O)[O-])ccc1[O-])CC(=O)[O-].[Mn+3].[Na+] [Compound 14, Na[Mn^IIIHBET-NO2]] , field Half-cell potential vs. normal hydrogen electrode (NHE): 476

====

METHOD: UV spectrum as a function of pH (phenol deprotonation pKa)
Format: physicochemical
APPLIED_CONDITIONS: fit of UV absorbance vs pH
Below: a set of entries, each annotated with reported pKa for ionization of the phenol.
Format: numeric value only, no unit, no commentary.

O=C([O-])CN(CC(=O)[O-])C1CCCCC1N(CC(=O)[O-])Cc1ccccc1[O-].[Mn+2].[Na+].[Na+] (racemic) [Compound 20, Na2[Mn^IIcycHBET]] | 7.95
COc1ccc([O-])c(CN(CCN(CC(=O)[O-])CC(=O)[O-])CC(=O)[O-])c1.[Mn+2].[Na+].[Na+] [Compound 9, Na2[Mn^IIHBET-OMe]] | 7.91
O=C([O-])CN(CCN(CC(=O)[O-])Cc1ccccc1[O-])CC(=O)[O-].[Mn+2].[Na+].[Na+] [Compound 4, Na2[Mn^IIHBET]] | 7.64

From here, focus on the item given below.
Item: O=C([O-])CN(CCN(CC(=O)[O-])Cc1cc([N+](=O)[O-])ccc1[O-])CC(=O)[O-].[Mn+2].[Na+].[Na+] [Compound 13, Na2[Mn^IIHBET-NO2]] | pKa for ionization of the phenol: 4.84

====

METHOD: T1 relaxivity (r1) by inversion recovery on Bruker mq60 Minispec, 1.4 T, 37° C., TRIS buffer pH 7.4
Format: physicochemical
APPLIED_CONDITIONS: pH 7.4, 37° C., 1.4 Tesla
Measured r1 (relaxivity of manganese complexes), listed per entry for reference.
Numbers only here, please. The scale is mM⁻¹ s⁻¹.

// r1 (relaxivity of manganese complexes) value for O=C([O-])CN(CC(=O)[O-])C1CCCCC1N(CC(=O)[O-])Cc1cc([N+](=O)[O-])ccc1[O-].[Mn+2].[Na+].[Na+] (racemic) [Compound 30, Na2[Mn^IIcycHBET-NO2)]] : 2.30

====

METHOD: T1 relaxivity (r1) by inversion recovery on Bruker mq60 Minispec, 1.4 T, 37° C., TRIS buffer pH 7.4
Format: physicochemical
APPLIED_CONDITIONS: pH 7.4, 37° C., 1.4 Tesla
In plain terms, low r1 (relaxivity of manganese complexes), meaning strictly below 2 mM⁻¹ s⁻¹, gives Y, and everything else gives N.

These recorded examples may help you get a feel for the data.
O=C([O-])CN(CCN(CC(=O)[O-])Cc1ccccc1[O-])CC(=O)[O-].[Mn+2].[Na+].[Na+] [Compound 4, Na2[Mn^IIHBET]] | N
O=C([O-])CN(CC(=O)[O-])C1CCCCC1N(CC(=O)[O-])Cc1ccccc1[O-].[Mn+3].[Na+] (racemic) [Compound 21, Na[Mn^IIIcycHBET]] | Y
COc1ccc([O-])c(CN(CCN(CC(=O)[O-])CC(=O)[O-])CC(=O)[O-])c1.[Mn+2].[Na+].[Na+] [Compound 9, Na2[Mn^IIHBET-OMe]] | N
O=C([O-])CN(CCN(CC(=O)[O-])Cc1cc([N+](=O)[O-])ccc1[O-])CC(=O)[O-].[Mn+3].[Na+] [Compound 14, Na[Mn^IIIHBET-NO2]] | Y

# check: r1 (relaxivity of manganese complexes) < 2 mM⁻¹ s⁻¹ for O=C([O-])CN(CCN(CC(=O)[O-])Cc1cc([N+](=O)[O-])ccc1[O-])CC(=O)[O-].[Mn+2].[Na+].[Na+] [Compound 13, Na2[Mn^IIHBET-NO2]]
N

For this compound, is r1 (relaxivity of manganese complexes) lower than 2 mM⁻¹ s⁻¹? O=C([O-])CN(CC(=O)[O-])C1CCCCC1N(CC(=O)[O-])Cc1ccccc1[O-].[Mn+2].[Na+].[Na+] (racemic) [Compound 20, Na2[Mn^IIcycHBET]]
N

Input O=C([O-])CN(CCN(CC(=O)[O-])Cc1ccccc1[O-])CC(=O)[O-].[Mn+3].[Na+] [Compound 5, Na[Mn^IIIHBET]] ; condition: r1 (relaxivity of manganese complexes) strictly below 2 mM⁻¹ s⁻¹. Does it hold?
Y

Origin of measurements: patent US20150336996A1
